- measurementTarget: human GLP-1R (SNAP-GLP-1R expressed in HEK293 cells) (human) (UniProt P43220)
- Sequence (P43220 24-463): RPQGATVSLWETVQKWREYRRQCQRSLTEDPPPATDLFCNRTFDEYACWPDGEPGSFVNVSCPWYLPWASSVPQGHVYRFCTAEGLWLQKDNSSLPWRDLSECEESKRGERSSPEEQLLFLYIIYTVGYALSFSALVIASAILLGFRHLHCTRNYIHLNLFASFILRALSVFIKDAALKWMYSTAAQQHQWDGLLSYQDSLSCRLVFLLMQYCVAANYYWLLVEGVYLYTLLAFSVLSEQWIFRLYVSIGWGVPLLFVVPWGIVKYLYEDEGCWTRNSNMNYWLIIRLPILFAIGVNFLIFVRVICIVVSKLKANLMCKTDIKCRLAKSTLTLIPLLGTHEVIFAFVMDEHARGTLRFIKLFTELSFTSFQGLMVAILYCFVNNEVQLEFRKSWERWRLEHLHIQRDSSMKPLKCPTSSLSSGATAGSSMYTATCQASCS
- procedureSummary: cell-based or functional assay
Starred links: 1 amine or outer side, 2 acyl side, 3 side chain; linkers in the order of their positions; H or OH if unused. Non-standard residues stand in square brackets, D forms with d. Groups on a side chain read outwards from the residue. No end group written: not given here. *: point of attachment. C18 diacid = O=C(O)CCCCCCCCCCCCCCCCC(=O)*; γGlu = O=C(O)[C@H](CCC(=O)[*:2])N[*:1]; 4Pal = N[C@@H](Cc1ccncc1)C(=O)O; αMeL = CC(C)C[C@](C)(N)C(=O)O; Dab = NCC[C@H](N)C(=O)O; AEEA = NCCOCCOCC(=O)O; Aib = CC(C)(N)C(=O)O
Could you mark each record 1 (yes) if its Internalization % TOP falls strictly under 50%, and 0 (no) if it equals or exceeds it?

IN: Quick check: Internalization % TOP of YXQGTFTSDXSKXLDKKAQXAFIEYLIAXGESSGAPPPSGS (synthetic construct; SITE 2: note = 2-Aminoisobutyric Acid; SITE 10: note = 3-(4-Pyridyl)-L-alanine; SITE 13: note = alpha-methyl-leucine; SITE 17: note = Lysine is chemically modified through conjugation of the epsilon-amino group of the Lysine side chain with (2-[2-(2-Amino-ethoxy)-ethoxy]-acetyl)) [Example 285] under 50%?
OUT: 0 (no)

IN: Okay, and YXQGTFTSDFSXXLDKKAQXAFIEWLLEGGSSSGAPPPSGT (synthetic construct; SITE 2: note = 2-Aminoisobutyric Acid; SITE 12: note = L-ornithine; SITE 13: note = alpha-methyl-leucine; SITE 17: note = Lysine is chemically modified through conjugation of the epsilon-amino group of the Lysine side chain with (2-[2-(2-Amino-ethoxy)-ethoxy]-acetyl)-(gamma-Glu)) [Example 174] ?
OUT: 0 (no)

IN: Okay, and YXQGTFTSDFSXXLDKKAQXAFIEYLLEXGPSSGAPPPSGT (synthetic construct; SITE 2: note = 2-Aminoisobutyric Acid; SITE 12: note = L-ornithine; SITE 13: note = alpha-methyl-leucine; SITE 17: note = Lysine is chemically modified through conjugation of the epsilon-amino group of the Lysine side chain with (2-[2-(2-Amino-ethoxy)-ethoxy]-acetyl)2-(gamma-Glu)) [Example 165] ?
OUT: 1 (yes)

IN: Okay, and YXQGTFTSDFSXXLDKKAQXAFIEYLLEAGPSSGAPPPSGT (not fully specified; synthetic construct; SITE 2: note = 2-Aminoisobutyric Acid; SITE 12: note = L-ornithine; SITE 13: note = alpha-methyl-leucine; SITE 17: note = Lysine is chemically modified through conjugation of the epsilon-amino group of the Lysine side chain with (gamma-Glu)2-CO-(CH2)16-CO2H; SITE 20: note = 2-Am) [Example 204] ?
OUT: 1 (yes)

IN: Okay, and YXQGTFTSDFSXXLDKKAQXAFIEYLLEXGESSGAPPPSGS (synthetic construct; SITE 2: note = 2-Aminoisobutyric Acid; SITE 12: note = L-ornithine; SITE 13: note = alpha-methyl-leucine; SITE 17: note = Lysine is chemically modified through conjugation of the epsilon-amino group of the Lysine side chain with (2-[2-(2-Amino-ethoxy)-ethoxy]-acetyl)2-(gamma-Glu)) [Example 179] ?
OUT: 1 (yes)

IN: Okay, and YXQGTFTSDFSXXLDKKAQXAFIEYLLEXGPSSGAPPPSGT (synthetic construct; SITE 2: note = 2-Aminoisobutyric Acid; SITE 12: note = L-ornithine; SITE 13: note = alpha-methyl-leucine; SITE 17: note = Lysine is chemically modified through conjugation of the epsilon-amino group of the Lysine side chain with (2-[2-(2-Amino-ethoxy)-ethoxy]-acetyl)-(gamma-Glu)) [Example 278] ?
OUT: 0 (no)

IN: Okay, and YXQGTFTSDXSXXLDKKAQXAFIEYLIEXGESSGAPPPSGS (synthetic construct; SITE 2: note = 2-Aminoisobutyric Acid; SITE 10: note = 3-(4-Pyridyl)-L-alanine; SITE 12: note = L-ornithine; SITE 13: note = alpha-methyl-leucine; SITE 17: note = Lysine is chemically modified through conjugation of the epsilon-amino group of the Lysine side chain with (2-[2-(2-) [Example 223] ?
OUT: 0 (no)

IN: Okay, and Y[Aib]QGTFTSD[4Pal]S[Dab][αMeL]LDKK([AEEA-γGlu-C18 diacid])AQ[Aib]AFIEYLIE[Aib]GESSGAPPPSGS-NH2 [Example 188] ?
OUT: 1 (yes)

IN: Okay, and YXQGTFTSDFSXXLDKKAQXAFIEWLLEGGSSSGAPPPSGS (synthetic construct; SITE 2: note = 2-Aminoisobutyric Acid; SITE 12: note = L-ornithine; SITE 13: note = alpha-methyl-leucine; SITE 17: note = Lysine is chemically modified through conjugation of the epsilon-amino group of the Lysine side chain with (2-[2-(2-Amino-ethoxy)-ethoxy]-acetyl)-(gamma-Glu)) [Example 173] ?
OUT: 1 (yes)

IN: Okay, and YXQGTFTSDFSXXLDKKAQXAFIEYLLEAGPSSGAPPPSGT (not fully specified; synthetic construct; SITE 2: note = 2-Aminoisobutyric Acid; SITE 12: note = L-ornithine; SITE 13: note = alpha-methyl-leucine; SITE 17: note = Lysine is chemically modified through conjugation of the epsilon-amino group of the Lysine side chain with (gamma-Glu)3-CO-(CH2)16-CO2H; SITE 20: note = 2-Am) [Example 205] ?
OUT: 0 (no)
